Quick list: growth at 10 µM per entry.
Test system: UACC-257
Experiment: Growth inhibition of human UACC257 cells assessed as growth percentage at 10 uM incubated for 48 hrs by sulforhodamine B assay relative to control
Assay type: functional
Conditions: UACC-257, 48 h, read-out: Activity
// return numeric value only (unit: %, not printed)

# molecule, result-value
measured = [
    ("CC1=C(C(=O)c2ccccc2)C(c2ccc3c(c2)OCO3)NC(=S)N1 (racemic)", 57.2),
]

Record O=C1C2=C(NC(=S)NC2c2ccc3c(c2)OCO3)c2ccccc21 (racemic) has UACC-257 growth at 10 µM equal to 102

Record CC(=O)N1C(=S)NC(C)=C(C(=O)OCc2ccccc2)C1c1ccc2c(c1)OCO2 (racemic) has UACC-257 growth at 10 µM equal to 77.7

Record CC(=O)C1=C(C)NC(=S)NC1c1ccc2c(c1)OCO2 (racemic) has UACC-257 growth at 10 µM equal to 102

Record CC1(C)CC(=O)C2=C(C1)NC(=O)NC2c1ccc2c(c1)OCO2 (racemic) has UACC-257 growth at 10 µM equal to 102

Record CC(=O)N1C(=S)NC(C)=C(C(=O)OCC(C)C)C1c1ccc2c(c1)OCO2 (racemic) has UACC-257 growth at 10 µM equal to 99.5

Record CC(=O)C1=C(C)NC(=O)NC1c1ccc2c(c1)OCO2 (racemic) has UACC-257 growth at 10 µM equal to 107

Record CC1=C(C(=O)OCC(C)C)C(c2ccc3c(c2)OCO3)NC(=O)N1 (racemic) has UACC-257 growth at 10 µM equal to 103

Source of measurements: ChEMBL document CHEMBL4406880
